Origin of the recorded values: patent US20220085295A1

# procedure.summary: Solubility experiment in toluene
# Assay type: physicochemical
# experimental.context: in toluene at room temperature/normal pressure
Label scheme for Solubility (wt %): lower than 4 wt % is Not met, 4 wt % and above is Met.

- molecule: "CC(C)(C)c1ccc(Oc2ccc(C3(c4ccc(C(C)(C)C)cc4)c4cc(N(c5ccccc5)c5ccc(C(C)(C)C)cc5)c5c(oc6ccccc65)c4-c4c3cc(N(c3ccccc3)c3ccc(C(C)(C)C)cc3)c3oc5ccccc5c43)cc2)cc1 (stereo not drawn) [Compound 7]"
  qualitative.label: "Not met"
- molecule: "CC(C)(C)c1ccc(N(c2ccccc2)c2ccc3c(c2)C2(c4ccccc4-c4ccccc42)c2cc(N(c4ccccc4)c4ccc(C(C)(C)C)cc4)c4c(oc5ccccc54)c2-3)cc1 [Compound BD, reference compound]"
  qualitative.label: "Not met"
- molecule: "CC(C)(C)c1ccc(N(c2ccc(C(C)(C)C)cc2)c2ccc(C3(c4ccc(C(C)(C)C)cc4)c4cc(N(c5ccc(C(C)(C)C)cc5)c5cccc6c5oc5ccccc56)ccc4-c4c3cc(N(c3ccc(C(C)(C)C)cc3)c3cccc5c3oc3ccccc35)c3oc5ccccc5c43)cc2)cc1 (stereo not drawn) [Compound 2]"
  qualitative.label: "Met"
- molecule: "CC(C)(C)c1ccc(N(c2ccc(C(C)(C)C)cc2)c2ccc(C3(c4ccc(C(C)(C)C)cc4)c4cc(N(c5ccc(C(C)(C)C)cc5)c5cccc6c5oc5ccccc56)ccc4-c4c3cc(N(c3ccc(C(C)(C)C)cc3)c3cccc5c3oc3ccccc35)c3c4-c4ccccc4C3(C)C)cc2)cc1 (stereo not drawn) [Compound 4]"
  qualitative.label: "Met"

====

The molecules listed here are annotated with their Solubility (wt %).
# procedure.summary: Solubility experiment in toluene
# Type: physicochemical
# experimental.context: in toluene at room temperature/normal pressure
assay.metric: Solubility (wt %)

- molecule: "CC(C)(C)c1ccc(N(c2ccc(C(C)(C)C)cc2)c2ccc(C3(c4ccc(C(C)(C)C)cc4)c4cc(N(c5ccccc5)c5ccc(C(C)(C)C)cc5)ccc4-c4c3cc(N(c3ccccc3)c3ccc(C(C)(C)C)cc3)c3oc5ccccc5c43)cc2)cc1 (stereo not shown) [Compound 1]"
  test.value: 4.5
- molecule: "CC(C)(C)c1ccc(N(c2ccc(C(C)(C)C)cc2)c2ccc(C3(c4ccc(C(C)(C)C)cc4)c4cc(N(c5ccccc5)c5ccc(C(C)(C)C)cc5)ccc4-c4c3cc(N(c3ccccc3)c3ccc(C(C)(C)C)cc3)c3c4-c4ccccc4C3(C)C)cc2)cc1 (stereo not shown) [Compound 3]"
  test.value: 5.8
- molecule: "CC(C)(C)c1ccc(N(c2ccc(C(C)(C)C)cc2)c2ccc(C3(c4ccc(C(C)(C)C)cc4)c4cc(N(c5ccc(C(C)(C)C)cc5)c5cccc6c5oc5ccccc56)c5c(oc6ccccc65)c4-c4c3cc(N(c3ccc(C(C)(C)C)cc3)c3cccc5c3oc3ccccc35)c3oc5ccccc5c43)cc2)cc1 (stereo not shown) [Compound 6]"
  test.value: 4.1
- molecule: "Cc1ccc(C)c(C2(c3ccc([Si](C)(C)C)cc3)c3cc(N(c4ccccc4)c4ccc(C(C)(C)C)cc4)c4c(oc5ccccc54)c3-c3c2cc(N(c2ccccc2)c2ccc(C(C)(C)C)cc2)c2oc4ccccc4c32)c1 (stereo not shown) [Compound 9]"
  test.value: 3.4
